Measured IC50, listed per entry.
molecular target: Gamma-secretase; assay: Inhibition of gamma-secretase activity in H4 human neuroglioma cells by measuring amyloid beta production; type: cell-based
A number alone suffices; assume nM.

Below: 2 molecules and their reported IC50.
smiles_data=CC(C)C[C@H](NC(=O)Cc1ccc2ccccc2c1)C(=O)N[C@@H](CC1CCCCC1)[C@H](O)Cc1ccccc1C(=O)NC(C)(C)C experimental_value=4.7
smiles_data=CCCCN(C)C(=O)[C@H](CC1CCCCC1)NC(=O)[C@H](CC(C)C)NC(=O)Cc1cccc(OC)c1 experimental_value=480

In the following, a different molecule is considered.
Request: Recorded IC50 of CCOC(=O)[C@H](CC1CCCCC1)NC(=O)[C@H](CC(C)C)NC(=O)Cc1ccccc1 , please.
Response: 900
